assay: CREB reporter modulators without forskolin, primary screen, cell-based, PC12, CRE-LacZ reporter, unstimulated (AID 1145); details: no forskolin, luminescence, 4.5 h, higher = more signal, called active from +8 up or from −8 down
Classification field: enter Satisfied for z-score values not below -0.3, Not satisfied for values below it.

1) COC(=O)[C@@]1(Cc2ccccc2)[C@H]2c3cc(C(=O)N4CCCC4)n(Cc4ccc(C)o4)c3C[C@H]2CN1C(=O)c1ccccc1 ... Satisfied
2) O=C1OCCC=C[C@H]2OC34C=CCN(Cc5ccccc5)C(=O)[C@H]3N(CCCCCCO)C(=O)[C@@H]4C12 (stereo partly drawn) ... Not satisfied
3) C=CCOC(=O)[C@@H]1[C@H]2C(=O)O[C@H](c3ccccc3)[C@H](c3ccccc3)N2[C@H](c2ccc(OCCOC(=O)[C@@H]3C[C@@H]4C(=O)N[C@@H](Cc5ccccc5)C(=O)N4[C@@H]3c3cccc(OCCO)c3)cc2)[C@@]12C(=O)Nc1ccc(I)cc12 ... Not satisfied
4) O=C1OCCC=C[C@H]2OC34C=CCN(Cc5ccccc5)C(=O)[C@H]3N(CCCCCO)C(=O)[C@@H]4C12 (stereo partly drawn) ... Satisfied
5) COc1cc(C(O)C2C=CC3C(=O)N(c4ccccc4)C(=O)C3N2Nc2ccc(C#N)cc2)cc(OC)c1OC (stereo not drawn) ... Satisfied
6) O=C1C2C=CC(C(O)c3ccc(B(O)O)cc3)N(Nc3ccccc3)C2C(=O)N1c1ccccc1 (stereo not drawn) ... Satisfied
7) COCCOC(=O)N1C(=O)[C@@]2(c3cc(C#CCNC(N)=O)ccc31)[C@H](c1ccc(O)cc1)N1[C@H](c3ccccc3)[C@H](c3ccccc3)OC(=O)[C@H]1[C@@H]2C(=O)Nc1nc2ccccc2s1 ... Not satisfied
8) CN(C)CCCNC(=O)[C@@]1(Cc2ccccc2I)c2ccccc2C(=O)N(Cc2ccccc2C(F)(F)F)[C@H]1c1ccc(CO)cc1 ... Satisfied
9) COC(=O)[C@@]1(Cc2ccccc2)[C@H]2c3cc(C(=O)N(C)C)n(Cc4cc(C)n(C)n4)c3C[C@H]2CN1C(=O)c1ccccc1 ... Satisfied
10) O=C1O[C@@H](c2ccccc2)[C@@H](c2ccccc2)N2[C@@H](c3ccc(OCCO)cc3)[C@]3(C(=O)Nc4ccccc43)[C@@H](C(=O)Nc3nc4ccccc4s3)[C@H]12 ... Satisfied
11) O=C1C[C@]2(c3ccc([N+](=O)[O-])cc3)C(=O)N(CC(F)(F)F)c3cc(CO)ccc3[C@H]2N1CC12CC3CC(CC(C3)C1)C2 ... Not satisfied
12) CC(=O)NCCCC[C@@H]1NC(=O)[C@@H]2C[C@H](C(=O)NCCCCCCNC(=O)CS)[C@H](c3ccc(O)cc3)N2C1=O ... Satisfied
13) COCCOC(=O)N1C(=O)[C@@]2(c3cc(C#CCNC(N)=O)ccc31)[C@H](c1ccccc1OCCO)N1[C@H](c3ccccc3)[C@H](c3ccccc3)OC(=O)[C@H]1[C@@H]2C(N)=O ... Satisfied

* * *

molecular target: Carbonic anhydrase 2 (Homo sapiens) (UniProt P00918); test: CAII small-molecule binders, profiling panel, biochemical, small-molecule microarray, Alexa647-labelled CAII (AID 1122); conditions: CAII-A647 binding fluorescence, higher = more signal
# label = TRUE if composite z-score >= 0.5 else FALSE

1. COC(=O)[C@]1(Cc2ccccc2N=[N+]=[N-])N=C(c2ccc(OCCCO)cc2)O[C@@H]1c1ccccc1N=[N+]=[N-] ... TRUE
2. C=CCC(OC(C)=O)[C@@H]1[C@@H](N(Cc2ccc(-c3ccccc3)cc2)C(=O)Cc2ccc(OC)cc2)c2cc(OCCCO)ccc2N1C(=O)c1ccc2ccccc2n1 (some centres not stated) ... FALSE
3. Cc1ccc(S[C@]2(C(=O)NCCN3CCOCC3)CC(=O)N(Cc3cc(C(F)(F)F)cc(C(F)(F)F)c3)[C@@H]2c2ccc(CO)cc2I)cc1 ... TRUE
4. COc1ccccc1CN1C(=O)c2ccccc2[C@@H](C(=O)NCCN2CCOCC2)[C@@H]1c1ccc(CO)cc1 ... TRUE
5. CCN(CC)c1ccc(N2CC=CC34O[C@@H]5C=CCCOC(=O)C5[C@H]3C(=O)N(CCCCCO)[C@@H]4C2=O)cc1 (some centres not stated) ... FALSE
6. COCC(=C=CC[C@@H](O)c1ccc(CO)o1)CCO ... FALSE

* * *

Listed here: items and their measured composite z-score.
biological target: Albumin (Bos taurus) (UniProt P02769); assay: bovine serum albumin binders on microarray, profiling panel, artefact control for SMM control protein annotation, biochemical, small-molecule microarray, Alexa647 label, 635/667 nm fluorescence (AID 1118); conditions: BSA-A647 binding, fluorescence 635 nm, higher = more signal;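 further: score merges 667 nm emission intensity and signal-to-noise per printed compound spot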
Sequence (P02769 whole entry, looked up): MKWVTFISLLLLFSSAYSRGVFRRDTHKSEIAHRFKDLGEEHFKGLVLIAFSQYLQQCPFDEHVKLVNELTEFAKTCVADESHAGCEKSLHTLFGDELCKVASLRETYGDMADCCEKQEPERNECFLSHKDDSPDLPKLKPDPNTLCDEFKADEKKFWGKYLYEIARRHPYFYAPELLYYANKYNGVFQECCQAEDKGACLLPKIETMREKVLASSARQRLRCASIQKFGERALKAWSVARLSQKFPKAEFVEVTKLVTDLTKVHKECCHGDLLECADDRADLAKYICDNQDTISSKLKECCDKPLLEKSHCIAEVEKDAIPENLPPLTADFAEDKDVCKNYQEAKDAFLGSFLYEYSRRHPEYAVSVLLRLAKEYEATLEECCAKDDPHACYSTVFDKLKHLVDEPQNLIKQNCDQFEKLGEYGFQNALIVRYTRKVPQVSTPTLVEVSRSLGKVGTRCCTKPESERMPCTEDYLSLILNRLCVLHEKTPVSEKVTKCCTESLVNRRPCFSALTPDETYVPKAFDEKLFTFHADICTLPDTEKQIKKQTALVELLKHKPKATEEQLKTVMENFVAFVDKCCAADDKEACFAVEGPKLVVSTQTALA
readout: composite z-score

1) CN(C)CCCCNC(=O)[C@H]1C[C@H]2C(=O)N[C@@H](Cc3ccccc3)C(=O)N2[C@H]1c1ccc(O)cc1 ... 0.356
2) COc1ccc(C(=O)Nc2cccc(CN3C(=O)[C@@]4(O[C@@H](CCn5cc(CCO)nn5)[C@H]([Si](C)(C)c5ccc(OC)cc5)[C@H]4C)c4ccccc43)c2)cc1 ... -0.194
3) CC(C)C(O)C1C=CC2C(=O)N(c3ccccc3)C(=O)C2N1Nc1ccc(C#N)cc1 (centres undefined) ... 1.03
4) C=CCC(OC(C)=O)[C@@H]1[C@@H](N(Cc2ccc(-c3ccccc3)cc2)C(=O)Cc2ccc(OC)cc2)c2cc(OCCCO)ccc2N1C(=O)c1ccc2ccccc2n1 (some centres undefined) ... 0.0184

* * *

Below, each entry is listed alongside its reported composite z-score.
tested on: Inhibin beta A chain (activin A); assay: INHBA (activin A) binders on microarrays, primary screen, biochemical, small-molecule microarray, 635 nm fluorescence scan (AID 1107); settings: small-molecule microarray binding, higher = more signal;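 further: mouse activin A protein probed at 4.33 µg/mL on printed slides; score merges bound-protein fluorescence near 667 nm with spot signal-to-noise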
readout: composite z-score

1) CCOC(=O)C[C@H]1[C@H](OC(=O)c2ccc(-c3ccccc3)cc2)[C@@H](NC(=O)c2ccc3ccccc3c2)c2cc(OCCCO)ccc2N1C(=O)Cc1ccc(OC)cc1 ... 0.487
2) O=C1O[C@@H](c2ccccc2)[C@@H](c2ccccc2)N2[C@@H](c3ccc(OCCO)cc3)[C@]3(C(=O)Nc4ccccc43)[C@@H](C(=O)Nc3nc4ccccc4s3)[C@H]12 ... 0.411
3) C=C(COC)C(=O)CC[C@@H](OC(=O)c1cccnc1)c1ccc(CO)o1 ... 1.58
4) CCCCC=C[C@@H](NC(=O)c1ccco1)c1ccccc1 ... 0.809
5) Cc1ccc(S[C@]2(C(=O)NC3CC3)CC(=O)N(Cc3ccccc3)[C@@H]2c2ccc(CO)cc2)cc1 ... 0.194
6) CCCCC=C[C@@H](NC(=O)c1cccs1)c1ccccc1 ... 0.764
7) C=C[C@@H](COC(C)=O)N(Cc1ccccc1[N+](=O)[O-])S(=O)(=O)c1ccc(Br)cc1 ... 1.16
8) CCC[C@@H]1C=C(C(=O)O)[C@H](c2ccc(C)cc2)N1S(=O)(=O)c1ccc(C)cc1 ... 0.71
9) COc1ccc(CCNC(=O)[C@@]2(c3ccc([N+](=O)[O-])cc3)CC(=O)N(CC34CC5CC(CC(C5)C3)C4)[C@@H]2c2ccc(CO)cc2)cc1 ... 0.432
10) CN1C=C(C(=O)OCCS(C)(=O)=O)C(C(=O)OCCS(C)(=O)=O)=CC(CCCO)=CC1C1CC1 (stereo not given) ... -0.0932
11) C=CCN1C(=O)[C@]2(O[C@H](CCO)[C@@H]([Si](C)(C)c3ccc(OC)cc3)[C@@H]2C)c2cc(NC(=O)[C@H](C)O)ccc21 ... 0.197
12) COCCOC(=O)N1C(=O)[C@@]2(c3cc(C#CCNC(N)=O)ccc31)[C@H](c1ccccc1OCCO)N1[C@H](c3ccccc3)[C@H](c3ccccc3)OC(=O)[C@H]1[C@@H]2C(N)=O ... 0.719
13) CC(=O)NCCCC[C@@H]1NC(=O)[C@@H]2C[C@H](C(=O)NCCCCCCNC(=O)CS)[C@H](c3ccc(O)cc3)N2C1=O ... -0.989
14) CC(C)(C)N1CC=CC23O[C@@H]4C=CCOC(=O)[C@@H]4[C@H]2C(=O)N(CCCCCO)[C@@H]3C1=O (stereo not given in full) ... -0.0694
15) COCCOC(=O)N1C(=O)[C@@]2(c3cc(C#CC4(O)CCCCCC4)ccc31)[C@H](C(=O)N1CCCCCCC1)[C@H]1C(=O)O[C@H](c3ccccc3)[C@H](c3ccccc3)N1[C@@H]2c1ccccc1OCCO ... 1.63

* * *

biological target: NADPH oxidase 4 (Homo sapiens); assay: NOX4-dependent H2O2 signal modulators, primary screen, NOX inhibitor project, cell-based, HEK293-NOX4, tetracycline-induced, Amplex Red fluorescence (AID 1160); details: 45 min, higher = more signal, called active from +8 up or from −8 down
Classify by measured z-score: fulfilled if it is equal to or exceeds 0.3, not fulfilled if it is smaller.

1. C=C[C@H](C)[C@@H](O)c1ccc(O)c2ccccc12 ... not fulfilled
2. O=C1O[C@@H](c2ccccc2)[C@@H](c2ccccc2)N2[C@@H](c3ccc(OCCO)cc3)[C@]3(C(=O)Nc4ccc(C#CC5=CCCCC5)cc43)[C@@H](C(=O)O)[C@H]12 ... not fulfilled
3. CCOC(=O)C1=C[C@@H](C(C)C)N(S(=O)(=O)c2ccc(C)cc2)[C@H]1c1ccc(C(C)C)cc1 ... not fulfilled
4. CS(=O)(=O)CCOC(=O)C1=CC(CCCO)=CC(c2cccs2)N(Cc2cc3c(cc2Br)OCO3)C=C1C(=O)OCCS(C)(=O)=O (centres undefined) ... not fulfilled
5. O=C1OCC=C[C@H]2OC34C=CCN(c5ccc6ccccc6c5)C(=O)[C@H]3N(CCCO)C(=O)[C@@H]4[C@@H]12 (some centres undefined) ... not fulfilled
6. C=CC[C@@H](OC(=O)Nc1ccc(OC)cc1)c1ccc(O)c2ccccc12 ... not fulfilled
7. C=CC(=C)C1=CCO[C@@H]1[C@H]1CCCN1S(=O)(=O)c1ccccc1[N+](=O)[O-] ... fulfilled
8. CC(=CC1CCCCC1)[C@@H](NC(=O)c1ccc(C(F)(F)F)cc1)c1ccc(-c2ccccc2)cc1 ... not fulfilled
9. COCCOC(=O)N1C(=O)[C@@]2(c3cc(C#CCNC(N)=O)ccc31)[C@H](C(=O)N1CCN(c3ncccn3)CC1)[C@H]1C(=O)O[C@H](c3ccccc3)[C@H](c3ccccc3)N1[C@@H]2c1ccccc1OCCO ... fulfilled
10. CC(C)NC(=O)[C@@H]1c2ccccc2C(=O)N(Cc2ccccc2Cl)[C@H]1c1ccc(CO)cc1 ... fulfilled
11. C=CCOC(=O)[C@@H]1[C@H]2C(=O)O[C@H](c3ccccc3)[C@H](c3ccccc3)N2[C@H](c2ccc(OCCOC(=O)[C@@H]3C[C@@H]4C(=O)NCC(=O)N4[C@@H]3c3cccc(OCCO)c3)cc2)[C@@]12C(=O)Nc1ccc(I)cc12 ... fulfilled
12. C[C@]1(C(=O)NCc2ccccc2)c2ccccc2C(=O)N(Cc2cc(F)cc(C(F)(F)F)c2)[C@H]1c1ccc(CO)cc1 ... not fulfilled
13. COC(=O)[C@@]1(Cc2ccc(OC)cc2)[C@H]2c3cc(C(=O)N(C)C)n(Cc4c(OC)[nH]cc(C)c4=O)c3C[C@H]2CN1C(=O)c1ccccc1 ... not fulfilled
14. COCCOC(=O)N1C(=O)[C@@]2(c3ccccc31)[C@H](C(=O)Nc1nc3ccccc3s1)[C@H]1C(=O)O[C@H](c3ccccc3)[C@H](c3ccccc3)N1[C@@H]2c1ccc(OCCO)cc1 ... fulfilled

The reported numbers originate from PubChem BioAssay.
